log10(Ki) values for UniProt:P00742, compiled from several publications.
Form field - Quantity: Ki; Unit: nM; Scale: log10

Consider the reported log10(Ki) for these molecules:
Item under review: N=C(N)c1ccc2ccc(CN(CCC[n+]3cc[nH]c3)C(=O)c3cccc4ccccc34)cc2c1 . Reported log10(Ki)?
2.86

Item under review: CC(C)N1CC(CNC(=O)c2cc3ccccc3n2Cc2cc(-c3ccc(Cl)s3)on2)C1 . Reported log10(Ki)?
2.92

More entries:
Item under review: Cc1ncn(-c2cc(Cl)c(C(=O)NC[C@@H](c3ccccc3)c3nc4cc(C)c(C)cc4[nH]3)c(Cl)c2)n1 . Reported log10(Ki)?
3.39

Item under review: N=C(N)c1cccc(C[C@H](NS(=O)(=O)c2ccc3ccccc3c2)C(=O)N2CCC[C@H](C(=O)OCc3ccccc3)C2)c1 . Reported log10(Ki)?
3.93
